# study.target: T1, cynomolgous monkey CD25 (cynomolgous monkey)
# T1 construct: also called cmCD25; cm
# assay.procedure: SPR (BIAcore), cynomolgous CD25
I'd be grateful if you could share measured Kd for these entries.
Give bare numbers, in nM.

Query string: Sample Variant C35 (antibody, name in Kabat numbering, V domains shown, Isotype as printed: G2M3.QL) VH: QVQLVQSGAEVKKPGSSVKVSCKASGYTFTSYRMHWVRQAPGQGLEWMGYIKPSRGYTEYNQKFKDKATITADESTNTAYMELSSLRSEDTAVYYCARGGGVFDYWGQGTLVTVSS VL: DIQMTQSPSTLSASVGDRVTITCSASSSISYMHWYQQKPGKAPKLLIYTTSELASGVPARFSGSGSGTEFTLTISSLQPDDFATYYCHQRSTYPLTFGQGTKVEVK — what was its Kd?
Result string: 0.188

Further cases:
Query string: Sample Variant C28 (antibody, V domains shown, Isotype as printed: G2M3.QL) VH: QVQLVQSGAEVKKPGSSVKVSCKASGYTFTSYRMHWVRQAPGQGLEWMGYINPSSGYTEYNQKFKDKATITADESTNTAYMELSSLRSEDTAVYYCARGGGVFDYWGQGTLVTVSS VL: DIQMTQSPSTLSASVGDRVTITCSASSKISYMHWYQQKPGKAPKLLIYTTSDLASGVPARFSGSGSGTEFTLTISSLQPDDFATYYCHQRSTYPLTFGQGTKVEVK — what was its Kd?
Result string: 0.049
